- Test system: DIPGX7 (H3.3 K27M diffuse intrinsic pontine glioma line)
- assay_overview: growth inhibition (% activity, log2 RLU normalised to DMSO / staurosporine); higher = more growth inhibition
- experimental_parameters: 33 µM
readout_name: growth inhibition

Illustrative cases are given below, each with its answer.
NCCS    -0.687%
COC(=O)[C@@H]1CC2=CC(=O)CC[C@]2(C)[C@@]23O[C@@H]2C[C@@]2(C)[C@@H](CC[C@@]24CCC(=O)O4)[C@H]13    -0.276%
CC(=O)N[C@@H](CS)C(=O)O    0.31%
CCC(C)C1OC2(CCC1C)CC1CC(CC=C(C)C(OC3CC(OC)C(OC4CC(OC)C(O)C(C)O4)C(C)O3)C(C)C=CC=C3COC4C(O)C(C)=CC(C(=O)O1)C34O)O2 (stereo unspecified)    1.82%

Then there is this compound:
For the compound shown here, CCOc1nc2cccc(C(=O)O)c2n1Cc1ccc(-c2ccccc2-c2nnn[nH]2)cc1 , give the reported growth inhibition. 0.489%

----------
- Tested on: DIPGX29 (H3.3 K27M diffuse intrinsic pontine glioma line)
- assay_overview: growth inhibition (% activity, log2 RLU normalised to DMSO / staurosporine); higher = more growth inhibition
- experimental_parameters: 33 µM
readout_name: growth inhibition (%)
// note: answer is a bare numeric in %

CCCCC(=O)O[C@]1(C(=O)CO)[C@@H](C)C[C@H]2[C@@H]3CCC4=CC(=O)C=C[C@]4(C)[C@@]3(F)[C@@H](O)C[C@@]21C    2.95
NC1CCN(c2c(F)cc3c(=O)c(C(=O)O)cn(C4CC4)c3c2Cl)C1 (stereo not given)    0.157
Nc1ccc(/N=N/c2ccccc2)c(N)n1    -3.96
Nc1nc(N)nc(-c2cc(Cl)ccc2Cl)n1    -2.22
NC(=O)CC[C@H](N)C(=O)O    -1.66
CN(c1nccc(=O)[nH]1)C1CCN(c2nc3ccccc3n2Cc2ccc(F)cc2)CC1    2.38

Then there is this molecule:
For the molecule shown here, CS(=O)(=O)c1ccc(C(=O)Nc2ccc(Cl)c(-c3ccccn3)c2)c(Cl)c1 , give the reported growth inhibition. 2.56

----------
- Tested on: HGGX6 (H3.3 G34R paediatric high-grade glioma line)
- assay_overview: growth inhibition (% activity, log2 RLU normalised to DMSO / staurosporine); higher = more growth inhibition
- experimental_parameters: 33 µM
In this section we review reported growth inhibition values for a set of compounds.
// note: answer is a bare numeric in %

O=C(O)c1ccc(NC(=O)[C@H](Cc2ccc(O)cc2)NC(=O)c2ccccc2)cc1    -0.845
CC(C)NCC(O)c1ccc(NS(C)(=O)=O)cc1 (configuration not stated)    -2.93
NNC(=O)c1ccncc1    -0.478
O=C1OC(CN2CCOCC2)CN1/N=C/c1ccc([N+](=O)[O-])o1 (configuration not stated)    0.852
NC(=O)c1cnccn1    1.4
CN(Cc1cnc2nc(N)nc(N)c2n1)c1ccc(C(=O)N[C@@H](CCC(=O)O)C(=O)O)cc1    1.8
Cc1[nH]c(=O)c(C#N)cc1-c1ccncc1    -0.118
NC[C@H]1CC[C@H](C(=O)O)CC1    0.25

For the compound shown here, CC(/C=C1\SC(=S)N(CC(=O)O)C1=O)=C\c1ccccc1 , give the reported growth inhibition. -0.392

For the compound shown here, Cn1c([N+](=O)[O-])cnc1COC(N)=O , give the reported growth inhibition. -0.567

For the compound shown here, CCC(=O)OCC(=O)[C@@]1(OC(=O)CC)[C@@H](C)C[C@H]2[C@@H]3CCC4=CC(=O)C=C[C@]4(C)[C@@]3(F)[C@@H](O)C[C@@]21C , give the reported growth inhibition. 1.77

For the compound shown here, CC(=O)N[C@@H](CS)C(=O)O , give the reported growth inhibition. -2.9

----------
- System: SUDIPGVI (diffuse intrinsic pontine glioma line)
- assay_overview: growth inhibition (% activity, log2 RLU normalised to DMSO / staurosporine); higher = more growth inhibition
- experimental_parameters: 33 µM
readout_name: growth inhibition (%)
// note: answer is a bare numeric in %

CN(C)CC/C=C1/c2ccccc2COc2ccc(CC(=O)O)cc21    2.4
CN1CCN(c2c(F)cc3c(=O)c(C(=O)O)cn(CCF)c3c2F)CC1    2.45
CN[C@@H]1[C@H](O[C@H]2[C@H](O[C@H]3[C@H](O)[C@@H](O)[C@H](N=C(N)N)[C@@H](O)[C@@H]3N=C(N)N)O[C@@H](C)[C@]2(O)C=O)O[C@@H](CO)[C@H](O)[C@H]1O    -0.665
CC1(C)O[C@@H]2C[C@H]3[C@@H]4CCC5=CC(=O)C=C[C@]5(C)[C@@]4(F)[C@@H](O)C[C@]3(C)[C@]2(C(=O)CO)O1    1.71
C=CCc1cc(OC)c(O)c(C(=O)NCCO)c1    0.104
CCCCC(=O)O[C@]1(C(=O)CO)[C@@H](C)C[C@H]2[C@@H]3CCC4=CC(=O)C=C[C@]4(C)[C@@]3(F)[C@@H](O)C[C@@]21C    2.82

For the compound shown here, COc1ncnc(NS(=O)(=O)c2ccc(N)cc2)c1OC , give the reported growth inhibition. -0.393

For the compound shown here, Cn1c(=O)c2[nH]cnc2n(C)c1=O , give the reported growth inhibition. -2.69

For the compound shown here, COCCc1ccc(OCC(O)CNC(C)C)cc1 (centres undefined) , give the reported growth inhibition. 2.97

For the compound shown here, c1ccc2c(c1)CCCC2C1=NCCN1 (centres undefined) , give the reported growth inhibition. 2.93

For the compound shown here, CS(=O)(=O)c1ccc(C2=C(c3ccccc3)C(=O)OC2)cc1 , give the reported growth inhibition. -0.628

For the compound shown here, C#Cc1cccc(Nc2ncnc3cc(OCCOC)c(OCCO)cc23)c1 , give the reported growth inhibition. 2.81

----------
- Tested on: SUDIPGIV (diffuse intrinsic pontine glioma line)
- assay_overview: growth inhibition (% activity, log2 RLU normalised to DMSO / staurosporine); higher = more growth inhibition
- experimental_parameters: 33 µM
In this section we review reported growth inhibition values for a set of compounds.
// note: answer is a bare numeric in %

Cc1cnc(C(=O)NCCc2ccc(S(=O)(=O)NC(=O)NC3CCCCC3)cc2)cn1    0.461
CCN1CCN(C(=O)N[C@@H](C(=O)N[C@@H]2C(=O)N3[C@@H]2SC(C)(C)[C@@H]3C(=O)O)c2ccccc2)C(=O)C1=O    -0.166

For the compound shown here, N=C(N)NCCN1CCCCCCC1 , give the reported growth inhibition. 0.15

For the compound shown here, CCC(=O)NCC[C@@H]1CCc2ccc3c(c21)CCO3 , give the reported growth inhibition. 0.00903

For the compound shown here, CC(=O)O[C@]1(C(C)=O)CC[C@H]2[C@@H]3C[C@H](C)C4=CC(=O)C=C[C@]4(C)[C@@]3(F)[C@@H](O)C[C@@]21C , give the reported growth inhibition. -1.42

For the compound shown here, CN1CCN(C2=Nc3cc(Cl)ccc3Nc3ccccc32)CC1 , give the reported growth inhibition. -0.494

For the compound shown here, CCCCCCCCCC(=O)N[C@@H](Cc1c[nH]c2ccccc12)C(=O)N[C@@H](CC(N)=O)C(=O)N[C@@H](CC(=O)O)C(=O)N[C@@H]1C(=O)NCC(=O)N[C@@H](CCCN)C(=O)N[C@@H](CC(=O)O)C(=O)N[C@H](C)C(=O)N[C@@H](CC(=O)O)C(=O)NCC(=O)N[C@H](CO)C(=O)N[C@@H]([C@H](C)CC(=O)O)C(=O)N[C@@H](CC(=O)c2ccccc2N)C(=O)O[C@@H]1C , give the reported growth inhibition. -2.57

----------
- Tested on: HNSC
- assay_overview: growth inhibition (% activity, log2 RLU normalised to DMSO / staurosporine); higher = more growth inhibition
- experimental_parameters: 33 µM
readout_name: growth inhibition (%)
// note: answer is a bare numeric in %

Illustrative cases are given below, each with its answer.
Cc1cc(-n2c(=O)[nH]c(=O)n(C)c2=O)ccc1Oc1ccc(SC(F)(F)F)cc1    5.28
CCn1cc(C(=O)O)c(=O)c2cc(F)c(N3CCNCC3)nc21    2.46
N[C@H](C(=O)O)[C@H](O)c1ccc(O)c(O)c1    -3.73
Oc1ncnc2[nH]ncc12    -5.63
C[C@H](Cc1cc2c(c(C(N)=O)c1)N(CCCO)CC2)NCCOc1ccccc1OCC(F)(F)F    3.54

Then there is this molecule:
For the molecule shown here, CC(C)(Oc1ccc(Cl)cc1)C(=O)O , give the reported growth inhibition. 5.23

----------
- Tested on: SUDIPGVI
- assay_overview: growth inhibition (% activity, log2 RLU normalised to DMSO / staurosporine); higher = more growth inhibition
- experimental_parameters: 33 µM
readout_name: growth inhibition (%)
// note: answer is a bare numeric in %

NC(=O)c1ncn([C@@H]2O[C@H](CO)[C@@H](O)[C@H]2O)c1O    -1.05
CN(c1nccc(=O)[nH]1)C1CCN(c2nc3ccccc3n2Cc2ccc(F)cc2)CC1    3.14
Cc1cccc(CN2CCN(C(c3ccccc3)c3ccc(Cl)cc3)CC2)c1 (stereo not given)    4.9

Hello, I am looking for reported growth inhibition with SUDIPGVI for Clc1ccc(C(Cn2ccnc2)OCc2ccsc2Cl)c(Cl)c1 (stereo not given) . Could you help? 2.98

Hello, I am looking for reported growth inhibition with SUDIPGVI for O=C(O)C[C@H](O)C[C@H](O)/C=C/c1c(C2CC2)nc2ccccc2c1-c1ccc(F)cc1 . Could you help? 33.5
